Every entry's value here was drawn from ChEMBL document CHEMBL3507680.

Assay: Human HepG2 cell viability assay in 384 well format
Format: toxicity, cell-based
Set-up: dose 125 nL, time 70.5 hour; concentration not given beside the values
Settings: HepG2 cells, read-out: Inhibition
Parameter cytotoxicity at 70.5 h: see the listing below.
experimentalEndpoint: cytotoxicity at 70.5 h (%)

* CN1CCC(NCC2(O)CCCN(Cc3ccccc3F)C2=O)CC1 (stereo not drawn) | -4.92
* COC(=O)c1ccc(CNCc2ccn(C)n2)cc1 | 17.7
* CNC(=O)C(C)(C)N1CCC[C@H]1C(=O)NC(C)(C)C | 14.3
* CCc1nc(CN2CCN(C(=O)Cc3c(C)noc3C)CC2)cs1 | -10.4
* CCCNC(=O)C1CCN(Cc2csc(CC)n2)CC1 | 0.277
* O=S(=O)(NCc1ccc(S(=O)(=O)N2CCCC2)s1)c1ccc(F)cc1Cl | -1.37
* Cc1ccc(F)c(S(=O)(=O)NCCc2nnc[nH]2)c1 | 15.4
* CNc1cccc(C2CCN(C(C)=O)CC2)n1 | -5.62
* Cc1cccc(N2CCOC(C(=O)O)C2)c1 (stereo not drawn) | -6.1
* CNC(=O)NC(=O)CCN1CCN(c2nccs2)CC1 | -0.375
* Cc1cc(C(=O)N2CCCC(c3nc(C)no3)C2)on1 (stereo not drawn) | -10.6
* CC(C)C(C)n1nccc1NC(=O)Cn1cnc2ccccc21 (stereo not drawn) | -12.4
* CN(C)C[C@@H]1CN(C(=O)c2cc(S(N)(=O)=O)ccc2F)C[C@@H]1CO | -4.5
* Cc1cc2cc(CNC3CCN(CC4CCOC4)CC3)oc2cc1C (stereo not drawn) | 10.8
* Cc1ccc(CN2C[C@@H]3CCCO[C@@H]3[C@H](N(C)Cc3ccco3)C2)s1 | -11
* CCC(CC)CN1CCC2(CCCN(c3ncccn3)C2)C1 (stereo not drawn) | 25.1
* CCCc1nc(N[C@H]2COC[C@@H]2N2CCCCC2)c2cnn(C)c2n1 | -13.5
* COCCc1noc(C2CCN(C(=O)Nc3cccs3)CC2)n1 | -4.24
* O=C(O)c1ccc(S(=O)(=O)Nc2c(F)cccc2-n2cccn2)cc1 | -1.35
* OCc1cc2ccccc2nc1NCC1CC1 | -4.89
* CC(C)NC(=O)NCc1nnc2n1C(C(=O)N(C)C)CC2 (stereo not drawn) | -3.97
* Cc1nc(C2CCNCC2)cc(N2CCCC(C(=O)NCCCO)C2)n1 (stereo not drawn) | 10.6
* c1ccc2nc(N3CCCC(Cn4cncn4)C3)cnc2c1 (stereo not drawn) | -1.5
* CCn1cnnc1CNC(=O)N(C)Cc1cccc(Cl)c1Cl | -6.25
* CCCc1cc(N2CCC(NCC3(O)CCCCC3)CC2)nc(C)n1 | -8.99
* O[C@]12CC[C@H](CC1)N(Cc1ccc(F)cc1)C2CN1CCOCC1 (stereo partly drawn) | -7.54
* O=C1CCCN1Cc1nnc2n1CCCN(Cc1ccco1)C2 | -0.266
* O=S(=O)(c1cccnc1)N1C[C@@H]2COC[C@]2(CN2CCOCC2)C1 | -4.52
* CCN1CCN(c2ccc(CNC(=O)Cc3c(C)noc3C)cn2)CC1 | -10.4
* O=C(NCc1cccs1)C1CCCN(c2cc(-n3cncn3)ncn2)C1 (stereo not drawn) | -3.14
* CCc1n[nH]c(C2CN(C(=O)c3cncnc3CC)CCO2)n1 (stereo not drawn) | 0.869
* O=C(Nc1cccc(CNCc2csc(Br)c2)c1)C1CC1 | 4.95
* O=S1(=O)N(c2ccccc2)C[C@H](O)[C@]12CCNC2 | -2.92
* Nc1nc2nc(C3CCCN(C(=O)c4cscn4)C3)ccc2s1 (stereo not drawn) | 9.1
* CNC(=O)c1cccc(CN2CCN(c3ccncc3)CC2)c1 | 0.282
* O=C(Nc1cccc(CNCc2cccs2)c1)C1CCCC1 | -15
* CN(C)c1nc2c(c(N3CCC(O)CC3)n1)CN(CC(C)(C)C)CC2 | -13.5
* Cc1cnccc1N1CCN(C(=O)CCCN2CCCCC2)CC1 | -3.26
* Cn1cncc1CN1CCc2nc3sccc3c(=O)n2CC1 | -19.1
* O=C(Nc1ccc(N2CCCC2)nc1)N1CCc2sccc2C1 | 15.9
* Cc1ccc(C(=O)NS(=O)(=O)Cc2ccon2)c(C)c1 | -4.2
* Cc1nn(CCC(=O)N(C)Cc2c(Cl)cnn2C)cc1Br | -14.9
* CSc1ccc(NC(=O)Cc2cccc(O)c2)nc1 | -20.9
* O=C(N1CCOCC1)N1CCc2ncnc(Oc3cccnc3)c2CC1 | -2.03
* O=c1oc(-c2ccc(F)cc2)nn1CC1CCOC1 (stereo not drawn) | 16.4
* O=C(NCc1cc(O)ncn1)C1CCOc2ccccc2C1 (stereo not drawn) | -7.76
* Cc1nccn1CCCn1cncc1-c1ccc2c(c1)CCC(C)N2C (stereo not drawn) | -1.7
* COc1ccc(CNCC2CN(C3CC3)CCO2)cc1F (stereo not drawn) | -8.08
